Tested on: platelets (platelet rich plasma)
Assay: Inhibition of platelet aggregation, collagen as agonist
Format: cell-based
Conditions: compound 250 μM, collagen 5 μg/mL, human PRP, read-out: % Reduction in Aggregation, Collagen (5 μg/mL)

mol-smiles	inhibition at 250 µM
Cc1ncc(CNc2ccc(-c3ccc(C(=N)N)cc3)cn2)c(CO)c1O	28%
Cc1ncc(CNc2ccc(-c3ccc(C(=N)N)cc3)cc2OC(F)(F)F)c(CO)c1O	12%
COc1c(C)ncc(CNC(=O)c2ccc(-c3ccc(C(=N)N)cc3)cc2)c1CO	17%
Cc1ncc(CNC(=O)c2ccc(-c3ccc([N+](=O)[O-])nc3)cc2)c(CO)c1O	7%
